These data points were gathered from the array DNA melting data of Ke et al. (doi:10.1101/2024.01.08.574731).

- Protocol Text: folding enthalpy; higher = less favourable; fluorescence melt of hairpins on a sequencing array, two-state fit
- Reported Conditions: sodium 0.088 M
# cutoff -20 kcal/mol applies to folding enthalpy; >= gives fulfilled, < gives not fulfilled

>>> class_label("GTACGGGGAAACTCGTGC (.(((.(....).))).)")
"not fulfilled"
>>> class_label("GACGCAGGAAACCGCGTC (((((.(....).)))))")
"not fulfilled"
>>> class_label("GCATAGCGAAAGCTTGGC ((..(((....)))..))")
"fulfilled"
>>> class_label("ACAAAGAAATTTGT (((((....)))))")
"fulfilled"
>>> class_label("GAGTGTGGAAACACATTC ((.((((....)))).))")
"fulfilled"
>>> class_label("GCTTTCGAAAGAACTAGC ((((((....)))..)))")
"fulfilled"
>>> class_label("GCAACGCGAAAGCAATGC (((..((....))..)))")
"fulfilled"
>>> class_label("GATCAGTTCACTGATC ((((((....))))))")
"not fulfilled"
>>> class_label("GGAGTCGGAAACGATTCC (((.(((....))).)))")
"not fulfilled"
>>> class_label("GCATCGCGAAAGCTCTGC (((..((....))..)))")
"fulfilled"
>>> class_label("GCCCTCGAAAGAGCGGGC ((((((....)))..)))")
"not fulfilled"
